Taken from the supplement of paper PMC6089552.

- System: A673/TR/shEF
- method.notes: cell viability (LOESS-normalised, relative to median of negative controls) (log2 ratio); higher = more viable cells (less compound effect), active = hit call of the paper (over 3 MAD below the median)
- condition.summary: 0.25 µM; library screen: screen2; EWS-FLI1 expression: low (doxycycline-induced shRNA knockdown); treatment time: 72 h
The whole screen tested about 3,200 compounds, of which about 300 (9.4%) showed activity. For the sample, actives were picked, then their nearest neighbours and some compounds at random.
Could you please report measured cell viability (log2) for the items listed next?
Numbers only.

CN1CCC[C@@H]1c1cccnc1 | 0.0848
NCCCC(=O)O | 0.12

State recorded cell viability (log2) for all listed compounds.
1. CN(C)c1ccc(O)c2c1C[C@H]1C[C@H]3[C@H](N(C)C)C(=O)C(C(N)=O)=C(O)[C@@]3(O)C(=O)C1=C2O
2. CC(C)(C)c1onc(OCP(=O)(O)O)c1CC(N)C(=O)O (configuration not stated)
3. NCCCCC(=O)O
4. CN1[C@@H]2CC[C@@H]1CC(OC(c1ccccc1)c1ccccc1)C2 (some centres not stated)
5. CCCCCCCC/C=C\CCCCCCCC(=O)O

Ans.
1. 0.133
2. 0.0767
3. 0.128
4. 0.0858
5. 0.117

* * *

- System: A673/TR/shEF
- method.notes: cell viability (LOESS-normalised, relative to median of negative controls) (log2 ratio); higher = more viable cells (less compound effect), active = hit call of the paper (over 3 MAD below the median)
- condition.summary: 2.5 µM; library screen: screen1; EWS-FLI1 expression: low (doxycycline-induced shRNA knockdown); treatment time: 72 h
Out of some 3,200 compounds screened, about 300 (9.4%) showed activity. For the sample, actives were picked, then their nearest neighbours and some compounds at random.
readout.label: cell viability (log2)
Answers are plain numbers.

// known answers, use as guide
COC(=O)C[C@H]1C(C)(C)C(OC)=C2CC3=C4CC(=O)O[C@@H](c5ccoc5)[C@]4(C)CCC3[C@@]1(C)C2=O (stereo not given in full) | 0.109
O=C(/C=C/c1ccc(-c2cccc(Cl)c2)o1)c1ccco1 | 0.194

State recorded cell viability (log2) for all listed compounds.
1. C[C@H]1CC[C@@H](C(C)(C)O)CC2=C1CC[C@@H]2C
2. CC(=O)OC12CCCC(C)(CCC3C1CC3(C)C)C2 (stereo not given)
3. Nc1ccn([C@@H]2O[C@H](CO)[C@@H](O)[C@@H]2O)c(=O)n1
4. Cc1cc(Cl)ccc1OCC(O)CN1CCN(C)CC1 (stereo not given)
5. CC(=O)O[C@H]1C[C@@]2(C)[C@H](c3ccoc3)OC(=O)[C@H]3O[C@]32[C@@]2(C)C1[C@]1(C)C(C[C@H]2OC(C)=O)C(C)(C)[C@H](OC(C)=O)C[C@@H]1OC(C)=O (stereo not given in full)
6. CC1(C)Oc2ccc3ccc(=O)oc3c2C[C@H]1O
7. O=C(c1cc(-c2ccccc2)nc2ccccc12)N1CCCC1

Ans.
1. 0.083
2. -0.0213
3. 0.0115
4. 0.184
5. 0.0721
6. 0.0204
7. -0.0754

State recorded cell viability (log2) for all listed compounds.
1. CN(C)CCCN1c2ccccc2Sc2ccccc21
2. COc1ccc(OC)c(CN2CCN(Cc3ccc(F)cc3)CC2)c1
3. COc1ccc(Cl)cc1C(=O)NCCc1ccc(S(=O)(=O)NC(=O)NC2CCCCC2)cc1

Ans.
1: 0.224; 2: -0.00941; 3: 0.0806

State recorded cell viability (log2) for all listed compounds.
1. COc1ccc(C2NC(=O)NC(C)=C2C(=O)Nc2ccccc2Cl)cc1OC (stereo not given)
2. CC1CN(C(=O)c2cc(-c3ccccc3)nc3ccccc23)CC(C)O1 (stereo not given)
3. COc1cc(C2NC(=O)NC(C)=C2C(=O)Nc2cccc(Cl)c2)cc(OC)c1OC (stereo not given)

Ans.
[-0.0647, 0.0382, -0.0585]
